Cited source for all entries: PubChem BioAssay (NCI)

# System: MCF7 breast
# test-protocol: NCI tumour cell line growth inhibition, 48 h
measure: TGI

>>> df
                                    compound   observed
 0    C=CCn1c2c(c3ccccc3c1=O)C(=O)c1ccccc1-2   > 100 µM
 1               COc1ccc(CCn2cnc3ccccc32)cc1   > 100 µM
 2  O=[N+]([O-])C1C(c2ccccc2)C12c1ccccc1-c1ccccc12 (stereo unspecified)    30.8 µM
 3  COc1ccc(N[C@H](CS(=O)c2ccc(C)cc2)c2ccc(F)cc2)cc1 (stereo partly specified)   > 100 µM
 4       Nc1nc(SCc2ccccn2)c2ncn(C3CCCC3)c2n1   > 100 µM
 5  COC(=O)Cc1ccc2c(c1)Sc1ccc(CC(=O)OC)cc1N2C  > 63.5 µM
 6  COc1cccc(N2C(=O)C3c4[nH]c5ccccc5c4C4c5ccccc5CCC4C3C2=O)c1 (stereo unspecified)    > 10 µM
 7  Cc1c(-c2c(C)c3ccccc3n2S(=O)(=O)c2ccccc2)n(S(=O)(=O)c2ccccc2)c2ccccc12   > 100 µM
 8  CCN1CC(C)Cn2c(=O)[nH]c3cc(Br)cc1c32 (stereo unspecified)    87.4 µM
 9                   Brc1ccc(N=NN2CCCCC2)cc1   > 100 µM
10  C=CCC(C)C12CCNC(Cc3ccc(O)cc31)C2C (stereo unspecified)   > 100 µM

====

# Tested on: HS 578T breast
# test-protocol: NCI tumour cell line growth inhibition, 48 h
measure: TGI

                                   compound  observed
0  Cc1ccc(S(=O)(=O)N/C(=C\C=C\c2ccccc2)C(=O)C(C)(C)C)cc1  > 100 µM
1  Cc1cc(-c2ncc(CC(=O)Nc3ccc(-c4cnccn4)cn3)cc2C)ccn1  > 100 µM
2  Cn1c(=O)c2c(nc(NCCCCl)n2CC(=O)O)n(C)c1=O  > 100 µM
3  CC(C)Oc1c(-c2c(OC(C)C)c(=O)c2=O)c(=O)c1=O   > 67 µM
4  OC(C1CCC=NN1C(O)(C(F)(F)F)C(F)(F)F)(C(F)(F)F)C(F)(F)F (stereo unspecified)   > 10 µM
5  CCOc1cc2ncc(C#N)c(Nc3ccc(OCc4cccc(F)c4)c(Cl)c3)c2cc1NC(=O)CC1CCSS1 (stereo unspecified)   > 25 µM

====

# System: NCI/ADR-RES ovarian
# test-protocol: NCI tumour cell line growth inhibition, 48 h
measure: GI50

>>> print(df.to_string())
                                   compound  measure  observed
0  O=[N+]([O-])C1C(c2ccccc2)C12c1ccccc1-c1ccccc12 (stereo not given)     GI50  0.657 µM
1  Cc1cc(-c2ncc(CC(=O)Nc3ccc(-c4cnccn4)cn3)cc2C)ccn1     GI50   17.6 µM
2         N#Cc1c(Sc2ccccc2N)cccc1Sc1ccccc1N     GI50   15.4 µM
3  COc1cc(O)c([C@@H]2C[C@H](CCc3ccc(O)cc3)O[C@H](c3ccc(O)cc3)C2)c(O)c1C(=O)/C=C/c1ccc(O)cc1     GI50   5.53 µM
4  COc1cc(-c2nn(-c3ccc(NC(=O)c4ccc(Cl)c(Cl)c4)cc3)cc2-c2ccncc2)ccc1Cl     GI50   7.16 µM

====

# Test system: HT29 colon
# test-protocol: NCI tumour cell line growth inhibition, 48 h

molecule	TGI
CCC(C)[C@H](NC(=O)N[C@H](C)c1ccccc1)C(=O)OC (some centres not stated)	> 100 µM
CCOC(C[Se]CC(OCC)OCC)OCC	> 100 µM
CC(=O)NNc1nc(C)c(C(/C=C/c2ccc3c(c2)OCO3)=N/Nc2ccccc2)s1	> 100 µM
O=C(O)c1c(-c2cccc3ccccc23)sc(-c2cccc3ccccc23)c1C(=O)O	> 100 µM
CC(C)CCCC(C)[C@H]1CCC2[C@@H]3CCC4Cc5nc6c(nc5C[C@]4(C)C3CC[C@@]21C)CC1CC[C@@H]2C(C[C@@H](O)[C@@]3(C)C2C[C@@H]2OC4(CCC(C)CO4)C(C)[C@@H]23)[C@@]1(C)C6 (some centres not stated)	> 100 µM
Cc1cc2c(cc1Cl)Sc1nnc(Nc3ccccc3)n1S2(=O)=O	> 100 µM
O=P(O)(CCP(=O)(O)c1ccccc1)c1ccccc1	> 100 µM
Cc1ccc(C(=O)OC[C@H]2CC[C@@H](n3cc(N(C)C4CCCCC4)c(=O)[nH]c3=O)O2)cc1	37.8 µM
CN1CC2=C(OC(N)=C(C#N)C2c2cccs2)/C(=C/c2cccs2)C1 (configuration not stated)	> 78.3 µM
Cc1ccc(CNc2c3ccccc3nc3ccccc23)cc1	10.7 µM
Cc1c2c(nn1-c1ccc(S(=O)(=O)NC(=S)Nc3ccccc3)cc1)-c1ccccc1CC2	> 50 µM
CCOC(=O)C(=O)Nc1nc2c(s1)C(=O)c1ccccc1C2=O	27.4 µM

====

# Test system: SN12C renal
# test-protocol: NCI tumour cell line growth inhibition, 48 h; in the data active = GI50 below about 0.43 µM; inactive = the rest
Outcome codes: TRUE for active, FALSE for inactive

                                test_smiles  answer_label
0  CC(C)C[C@H](NC(=O)[C@H](Cc1cccc2ccccc12)NC(=O)N1CCOCC1)B(O)O          TRUE
1  CCN(CC)CCOc1nc2ccc(OC)cc2c2c1-c1ccc(OC)cc1C2=O         FALSE
2  N=C1C(c2nc(-c3ccc(Br)cc3)cs2)=C(O)CN1Cc1cccnc1         FALSE
3           ClCc1cccc(Cn2cnc3c(Cl)ncnc32)c1         FALSE
4  O=C(CN1CCN(c2ncccn2)CC1)Nc1ccc(Cl)cc1C(=O)c1ccccc1Cl         FALSE
5  COc1ccc(-c2nn3ncccc3c2-c2ccnc(Nc3ccc(Cl)c(C(F)(F)F)c3)n2)cc1         FALSE
6    COc1ccc2nc(N/N=C(\C)c3ccccn3)cc(C)c2c1          TRUE

====

# Test system: SNB-19 CNS
# test-protocol: NCI tumour cell line growth inhibition, 48 h
measure: TGI

In [3]: df
Out[3]:
                                    compound  target_entity  observed
 0  C=C1C(=O)O[C@H]2[C@H]1CC/C(COC(=O)c1cc3cc(F)ccc3[nH]1)=C\CC[C@@]1(C)O[C@@H]21     SNB-19 CNS     21 µM
 1  Cc1ccc([N+](=O)[O-])cc1S(=O)(=O)Nc1ccc(C2=NN(c3ccc([N+](=O)[O-])cc3[N+](=O)[O-])C(c3ccccc3)C2)cc1 (stereo unspecified)     SNB-19 CNS     33 µM
 2  Cc1c(C)c(C)c(-n2[nH]c(=O)n(C)c2=O)c(C)c1C     SNB-19 CNS  > 100 µM
 3  CN(C)c1cccc2c(S(=O)(=O)N[C@H]3CC[C@H]4[C@@H]5CCc6cc(O)ccc6[C@H]5CC[C@]34C)cccc12     SNB-19 CNS  > 100 µM
 4  CCCCCc1cc(OC(=O)c2c(O)cc(OC)cc2CCCCC)cc(O)c1C(=O)O     SNB-19 CNS   25.5 µM
 5           CN(C)C(=S)N/N=C\C=N/NC(=S)N(C)C     SNB-19 CNS  > 100 µM
 6         Cc1nc2c(nc1C)C(=O)c1cc(O)ccc1C2=O     SNB-19 CNS  > 100 µM
 7             Cc1ccc(C)n2c1nc1ccc3ccccc3c12     SNB-19 CNS  > 100 µM
 8  CC(=O)C(C(C)=O)=C1CCCC(O)O1 (stereo unspecified)     SNB-19 CNS  > 100 µM
 9         Cc1ccc(CNc2c3ccccc3nc3ccccc23)cc1     SNB-19 CNS   14.2 µM
10  COc1ccc(N(C(=O)Nc2ccc(Cl)c(Cl)c2)c2ccccc2)cc1     SNB-19 CNS   > 10 µM
11                      CCNC(=O)Nc1cccc(C)n1     SNB-19 CNS  > 100 µM
12        O=P(O)(CCP(=O)(O)c1ccccc1)c1ccccc1     SNB-19 CNS  > 100 µM
13  O=C(O)c1c(-c2cccc3ccccc23)sc(-c2cccc3ccccc23)c1C(=O)O     SNB-19 CNS  > 100 µM
14  CCCC/C=C1\CCC(CN2CCCCC2)C1=O (stereo unspecified)     SNB-19 CNS   49.4 µM
15  CC(=O)C1CC(C)=CCC12C(=O)Nc1ccccc12 (stereo unspecified)     SNB-19 CNS  > 100 µM
16  COc1ccc(N[C@H](CS(=O)c2ccc(C)cc2)c2ccc(F)cc2)cc1 (stereo partly specified)     SNB-19 CNS  > 100 µM
17  O=C(CN1CCN(c2ncccn2)CC1)Nc1ccc(Cl)cc1C(=O)c1ccccc1Cl     SNB-19 CNS  > 100 µM
18  C=C1CC2(OC1=O)C(=O)N(CCCCCCCN1C(=O)C3(CC(=C)C(=O)O3)c3ccccc31)c1ccccc12 (stereo unspecified)     SNB-19 CNS     22 µM
19  Cc1cnc2c(C)ccc([N+](=O)[O-])c2c1NCCCN(C)C     SNB-19 CNS  > 100 µM
20    C=CCn1c2c(c3ccccc3c1=O)C(=O)c1ccccc1-2     SNB-19 CNS  > 100 µM
21  Oc1ccc(Cl)cc1C1=N/C(=N\CN2CCN(C/N=C3/N=C(c4cc(Cl)ccc4O)CC(c4ccccc4)N3)CC2)NC(c2ccccc2)C1 (stereo unspecified)     SNB-19 CNS  > 100 µM
22          Cc1cnoc1NC1=CC(=O)C(=O)c2ccccc21     SNB-19 CNS   73.5 µM
23  CN1CC2=C(OC(N)=C(C#N)C2c2cccs2)/C(=C/c2cccs2)C1 (stereo unspecified)     SNB-19 CNS  > 100 µM
24  Cc1cc(C)nc(NS(=O)(=O)c2ccc(Nc3c4ccccc4nc4c(C(=O)Nc5ccc(S(=O)(=O)N=C(N)N)cc5)ccc(Cl)c34)cc2)n1     SNB-19 CNS   46.7 µM
25                  COc1nc(N(C)O)nc(N(C)O)n1     SNB-19 CNS  > 100 µM
26              N#CCC(=O)Nc1cccc(C(F)(F)F)c1     SNB-19 CNS  > 100 µM
27  CCN1CC(C)Cn2c(=O)[nH]c3cc(Br)cc1c32 (stereo unspecified)     SNB-19 CNS  > 100 µM
28  CC1=NOC2(C1)/C(=N/O)CCC/C2=N\O (stereo unspecified)     SNB-19 CNS  > 100 µM
29  CC(C)C[C@H](NC(=O)[C@H](Cc1cccc2ccccc12)NC(=O)N1CCOCC1)B(O)O     SNB-19 CNS  > 100 µM
30  COc1ccc2c(c1)O[C@@H]1C(O)Oc3cc(OC)c(OC)cc3[C@]1(O)C2=O (stereo partly specified)     SNB-19 CNS  > 100 µM
